Molecular target: T1, human Glypican-1 (UniProt P35052 24-530)
T1 chain: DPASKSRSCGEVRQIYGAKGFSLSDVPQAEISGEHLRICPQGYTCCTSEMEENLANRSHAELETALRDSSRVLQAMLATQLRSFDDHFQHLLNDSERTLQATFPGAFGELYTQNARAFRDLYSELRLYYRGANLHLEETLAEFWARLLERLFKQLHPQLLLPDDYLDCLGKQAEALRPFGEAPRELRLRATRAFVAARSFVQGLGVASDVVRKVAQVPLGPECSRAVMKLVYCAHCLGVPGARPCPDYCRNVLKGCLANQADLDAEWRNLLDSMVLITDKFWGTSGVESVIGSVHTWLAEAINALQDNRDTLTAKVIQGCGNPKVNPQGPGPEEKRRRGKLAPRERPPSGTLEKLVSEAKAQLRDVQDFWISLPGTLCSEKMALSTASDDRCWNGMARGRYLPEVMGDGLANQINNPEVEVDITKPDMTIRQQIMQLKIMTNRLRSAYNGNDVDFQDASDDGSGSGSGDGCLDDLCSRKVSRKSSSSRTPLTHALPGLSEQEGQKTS
Experiment: FACS
Listed here: items and their measured Kd.
The figure you give is taken to be in nM; do not add the unit.

# count of solved cases: 4
anti-Glypican-1 antibody clone K090-01a033 (antibody, V domains shown) VH: QVQLKQSGPELVKPGASVKISCKASGYSFTGYYMHWVKQSPEKSLEWIGEINPSTGDTTYNQKFKAKATLTVDKSSSTAYMQLKSLTSEDSAVYYCAREKRDDGVFAYWGQGTLVTVSS VL: DIVMSQSPKSMSMSVGERVALSCKASENVGTYVSWYQQKPEQSPKLLIYGASNRYTGVPDRFTGSGSATDFTLTISSVQAEDLADYYCGQSYSYPLTFGAGTKLELKR: 0.583
anti-Glypican-1 antibody clone K090-01a042 (antibody, V domains shown) VH: QVQLQQPGAELAKPGASVKMSCKASGYTFTRYWMHWVKQRPGQGLEWIGYINPSSGYTEYNQKFKDKATLTADKSSSTAYMQLSSLTSEDSAVYYCVRLGDYSYYFDYWGQGTTLTVSS VL: DVVMTQTPLSLPVSLGDQASISCRSSQSIVHSNGNTYLEWYLQKPGQSPKLLIYKVSNRFSGVPDRFSGSGSGTDFTLKISRVEAEDLGVYYCFQGSHVPWTFGGGTKLELKR: 6.36
anti-Glypican-1 antibody clone K090-02a002 (antibody, V domains shown) VH: EVKLVESGGGLVKPGGSRKLSCAASGFTFSDYGMHWVRQAPEKGLEWVAYISSGSSTIYYADTVKGRFTISRDNAKNTLFLQMTSLRSEDTAMYYCARHSYYSYDVGGDYVMDYWGQGTSVTVSS VL: DIVMSQSPKFMSTSVGDRVSITCKASQDVGTAVAWYQQKPGQSPKLLIYWASTRHTGVPDRFTGSGSGTDFTLTISNVQSEDLADYFCQQYSSYPLTFGAGTKLEIKR: 2.25
anti-Glypican-1 antibody clone K090-01a017 (antibody, V domains shown) VH: EVQLQQSGGELVRPGTSVKMSCKAAGYTFTNYWIGWVKQRPGHGLEWIGDLYPGGGYTHYNEKFKGKATLTADTSSSTAYMQLSSLTSEDSAIYYCARERVYFDGSRYFDVWGAGTTVTVSS VL: SIVMTQTPKFLPVSAGDRVTMTCKASQSVGNNVAWYQQKPGQSPKLLIYYASNRYTGVPDRFTGSGSGTDFTFTISSVQVEDLAVYFCQQHYSSPWTFGGGTKLEIKR: 5.92

Input anti-Glypican-1 antibody clone K090-01a002 (antibody, V domains shown) VH: EVQLQQSGPELVKPGASVKISCKSSGYSFTRYYMHWVKHSPEKSLEWIGEINPSTGDTTYNQKFKAKATLTVDKSSSTAYMQLKSLTSEDSAVYYCAREKRDDGVLAYWGQGTLVTVSS VL: DIQMTQSPKFLPVSAGDRVTMTCKASQSVGNNVAWYQQKPGQSPKLLIYYASNRYTGVPDRFTGSGSGTDFTFTISSVQVEDLAVYFCQQHYSSPLTFGAGTKLELKR . Output Kd: 0.638

Reported Kd for anti-Glypican-1 antibody clone K090-01a009 (antibody, V domains shown) VH: EVQLQQSGPELVKPGASVEISCKASGYSFTGYFMNWVKQSQGKSLEWIGRINPDNGDIFYNQKFKGKATLTVDKSSSTAHMELRSLTSEDSAVYYCARSWNWYFDVWGAGTTVTVSS VL: DIQMTQSPASLSASVGETVTITCRASENIYSYLAWYQQKQGKSPQLLVYNAKTLAEGVPSRFSGSGSGTQFSLKINSLQPEDFGSYYCQHHYGTPYTFGSGTKLEIKR was 4.47

Consider anti-Glypican-1 antibody clone K090-02b006 (antibody, V domains shown) VH: EVQLVESGGGLVKPGGSRKLSCAASGFTFSDYGMHWVRQAPEKGLEWVAYISSGSSTIYYADTVKGRFTISRDNAKNTLFLQMTSLRSEDTAIYYCVRHSYYNYDIGGYYAMDYWGQGTSVTVSS VL: DIVLTQSPSSLSASLGERVSLTCRASQEISGYLSWLQQKPDGTIKRLIYAASTLDSGVPKRFSGSRSGSDYSLTISSLESEDFADYYCLQYASYPLTFGAGTKLEIKR . Its measured Kd is 3.2

Short answer for anti-Glypican-1 antibody clone K090-01a030 (antibody, V domains shown) VH: QVQLQQSGAELVRPGTSVKMSCKAAGYTFTNYWIGWVKQRPGHGLEWIGDIYPGGGYTHYNEKFKGKATLTADTSSSTAYMQLSSLTSEDSAIYYCARERVYYDGSRYFDVWGAGTTVTVSS VL: DIKMTQSPKFLPVSAGDRVTMTCKASQSVGNNVAWYQQKPGQSPKLLIYYASNRYTGVPDRFTGSGSGTDFTFTISSVQVEDLAVYFCQQHYSSPWTFGGGTKLEIKR : Kd was 5.24

Origin of measurements: patent US20200308299A1
